Target: AAK1 (Homo sapiens)
Sequence (Q2M2I8 46-315 limits assumed): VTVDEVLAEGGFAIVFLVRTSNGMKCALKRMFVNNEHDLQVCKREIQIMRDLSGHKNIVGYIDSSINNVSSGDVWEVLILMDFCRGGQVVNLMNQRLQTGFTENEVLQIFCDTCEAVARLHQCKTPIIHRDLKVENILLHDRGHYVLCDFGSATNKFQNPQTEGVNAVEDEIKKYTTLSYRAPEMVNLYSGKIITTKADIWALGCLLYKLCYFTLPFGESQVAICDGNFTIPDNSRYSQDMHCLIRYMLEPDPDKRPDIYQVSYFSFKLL
Assay: ITC validation, AAK1
Assay type: binding
Details: ITC, 25°C, 5% DMSO, pH 7.4, duplicates
log10 of Kd overview
Would you kindly interpret these values as log10 of Kd expressed in µM?

Here is how some molecules turned out for log10 of Kd.
MOLECULE: Clc1ncnc2cc[nH]c12 [Fragment 9595, 4-chloro-5H-pyrrolo[3,2-d]pyrimidine]
MEASUREMENT NAME: log10 of Kd
RECORDED MEASUREMENT: 0.78

MOLECULE: Clc1nccc2cc[nH]c12
MEASUREMENT NAME: log10 of Kd
RECORDED MEASUREMENT: 1.78

Input: # log10 of Kd lookup, item Cc1n[nH]c(C)c1I
Output: 1.26

Input: # log10 of Kd lookup, item Oc1nc2nc(Cl)ccc2[nH]1
Output: 2.26

Input: # log10 of Kd lookup, item Nc1c(Cl)ccc(O)c1Cl
Output: 1.95

Input: # log10 of Kd lookup, item Clc1ncnc2ccoc12
Output: 2.48
